Reference for the values: patent US4575560A

# System: Tobacco Budworm 3rd Instar
# Assay info: Tobacco budworm secondary test, third-instar larvae on treated cotton cotyledons
# Format: in vivo, Heliothis virescens (Fabricus)
# Assay setup: 1000 ppm
Property measured: Mortality Rating Tobacco Budworm 3rd Instar

See these solved cases before continuing.
CN(C)C(=O)N(N=Cc1ccc(SC(F)F)cc1)C(=N)NN=Cc1ccc(SC(F)F)cc1 [HCF2 S / HCF2 S / CH3 / CH3] | 0 (No effect)
CC(C)(OC(=O)N(N=Cc1ccc(C(F)(F)F)cc1)C(=N)NN=Cc1ccc(C(F)(F)F)cc1)C(Cl)(Cl)Cl [CF3 / CF3 / Cl3 CC(CH3)2] | 9 (100%)

Using the record for CC(C)COC(=O)N(N=Cc1ccc(C(F)(F)F)cc1)C(=N)NN=Cc1ccc(C(F)(F)F)cc1 [CF3 / CF3 / -i-C4 H9] , report its Mortality Rating Tobacco Budworm 3rd Instar. 0 (No effect)

* * *

# System: Tobacco Budworm 3rd Instar
# Assay info: Tobacco budworm secondary test, third-instar larvae on treated cotton cotyledons
# Format: in vivo, Heliothis virescens (Fabricus)
# Assay setup: 1000 ppm
Counter-ions that a name gives are not always drawn.
The reader will find reported Mortality Rating Tobacco Budworm 3rd Instar values listed item by item below.

Sample answers from the record:
N=C(NN=Cc1ccc(C(F)(F)F)cc1)N(N=Cc1ccc(C(F)(F)F)cc1)C(=O)OCc1ccccc1 [CF3 / CF3 / drawing 59] | 0 (No effect)
N=C(NN=Cc1ccc(Cl)cc1)NN=Cc1ccc(Br)cc1 [Cl / Br / HCl] | 0 (No effect)
CN(C)C(=O)N(N=Cc1ccc(SC(F)(F)C(F)F)cc1)C(=N)NN=Cc1ccc(SC(F)(F)C(F)F)cc1 | 6 (66-75%)

The record that follows has no Mortality Rating Tobacco Budworm 3rd Instar shown yet.
Record request: Mortality Rating Tobacco Budworm 3rd Instar value, item "N=C(NN=Cc1ccc(SC(F)(F)C(F)F)cc1)NN=Cc1ccc(SC(F)(F)C(F)F)cc1" 0 (No effect)

* * *

# System: Tobacco Budworm 3rd Instar
# Assay info: Tobacco budworm secondary test, third-instar larvae on treated cotton cotyledons
# Assay type: in vivo, Heliothis virescens (Fabricus)
# Assay setup: 1000 ppm
Property measured: Mortality Rating Tobacco Budworm 3rd Instar

Check out these entries, answers already filled in.
N=C(NN=Cc1ccc(OC(F)(F)C(F)F)cc1)N(N=Cc1ccc(OC(F)(F)C(F)F)cc1)C(=O)NCCCl | 6 (66-75%)
N=C(NN=Cc1ccc(C(F)(F)F)cc1)N(N=Cc1ccc(C(F)(F)F)cc1)C(=O)NCCCl | 9 (100%)

--- query ---
Given the compound N=C(NN=Cc1ccc(Cl)cc1)NN=Cc1ccc(OC(F)(F)C(F)F)cc1 [Cl / HCF2 CF2 O / S] , what is its reported Mortality Rating Tobacco Budworm 3rd Instar? 0 (No effect)

* * *

# System: Tobacco Budworm
# Assay info: Tobacco budworm LC50 and FD50 (instar not stated)
# Type: in vivo, Heliothis virescens (Fabricus)
# Assay setup: Heliothis virescens; read-out: LC50 Tobacco Budworm
# Description: Test formulations and procedures used for evaluation are as follows: FD50 = The concentration of insecticide required to reduce insect
Property measured: LC50
Include the unit after the number when you answer.

CN(C)C(=O)N(N=Cc1ccc(OC(F)(F)C(Cl)Cl)cc1)C(=N)NN=Cc1ccc(OC(F)(F)C(Cl)Cl)cc1 | 140 µg/mL
N=C(NN=Cc1ccc(C(F)(F)F)cc1)N(N=Cc1ccc(C(F)(F)F)cc1)C(=O)N1CCCC1 | 1000 µg/mL
CN(C)C(=O)N(N=Cc1ccc(OC(F)(F)C(F)Cl)cc1)C(=N)NN=Cc1ccc(OC(F)(F)C(F)Cl)cc1 (centres unmarked) [drawing 40 / drawing 41 / CH3 / CH3] | 201 µg/mL

// lookup LC50 for "CN(C)C(=O)N(N=Cc1ccc(C(F)(F)F)cc1)C(=N)NN=Cc1ccc(C(F)(F)F)cc1" 96 µg/mL

What does the data say about its LC50? Entry: "CN(C)C(=O)N(N=Cc1ccc(OC(F)(F)F)cc1)C(=N)NN=Cc1ccc(OC(F)(F)F)cc1" 77 µg/mL

* * *

Below, each entry is listed alongside its reported Mortality Rating Tobacco Budworm 3rd Instar.
# Tested on: Tobacco Budworm 3rd Instar
# Assay info: Tobacco budworm secondary test, third-instar larvae on treated cotton cotyledons
# Format: in vivo, Heliothis virescens (Fabricus)
# Assay setup: 1000 ppm

N=C(NN=Cc1ccc(F)cc1)NN=Cc1ccc(F)cc1 | 3 (36-45%)
CN(C)C(=O)N(N=Cc1ccc(Cl)cc1)C(=N)NN=Cc1ccc(Cl)cc1 | 0 (No effect)
N=C(NN=Cc1ccc(OC(F)(F)C(F)Cl)cc1)N(N=Cc1ccc(OC(F)(F)C(F)Cl)cc1)C(=O)OCCCl (centres unmarked) [drawing 57 / drawing 58 / ClCH2 CH2] | 0 (No effect)
C=CCOC(=O)N(N=Cc1ccc(OC(F)(F)F)cc1)C(=N)NN=Cc1ccc(OC(F)(F)F)cc1 | 0 (No effect)
CCCOC(=O)N(N=Cc1ccc(C(F)(F)F)cc1)C(=N)NN=Cc1ccc(C(F)(F)F)cc1 | 0 (No effect)
N=C(NN=Cc1ccc(Br)cc1)NN=Cc1ccc(OC(F)(F)C(F)F)cc1 | 0 (No effect)
CC(C)OC(=O)N(N=Cc1ccc(OC(F)(F)C(F)Cl)cc1)C(=N)NN=Cc1ccc(OC(F)(F)C(F)Cl)cc1 (centres unmarked) [drawing 50 / drawing 51 / -i-C3 H7] | 0 (No effect)
N=C(NN=Cc1ccc(C(F)(F)F)cc1)N(N=Cc1ccc(C(F)(F)F)cc1)C(=O)OCCBr | 0 (No effect)

Requested read-out: Mortality Rating Tobacco Budworm 3rd Instar. Entry: CCC(C)OC(=O)N(N=Cc1ccc(Cl)cc1)C(=N)NN=Cc1ccc(Cl)cc1 (centres unmarked) [Cl / Cl / drawing 56] 0 (No effect)

* * *

# Test system: Tobacco Budworm 3rd Instar
# Assay info: Tobacco budworm secondary test, third-instar larvae on treated cotton cotyledons
# Assay type: in vivo, Heliothis virescens (Fabricus)
# Assay setup: 1000 ppm
Mortality Rating Tobacco Budworm 3rd Instar reference

A selection of reference data follows.
CN(C)C(=O)N(N=Cc1ccc(OC(F)(F)C(F)Cl)cc1)C(=N)NN=Cc1ccc(OC(F)(F)C(F)Cl)cc1 (stereo not shown) [drawing 40 / drawing 41 / CH3 / CH3] | 9 (100%)
N=C(NN=Cc1ccc2c(c1)OC(F)C(F)(F)O2)NN=Cc1ccc2c(c1)OC(F)C(F)(F)O2 (stereo not shown) [drawing 48 / S] | 0 (No effect)
N=C(NN=Cc1ccc(C(F)(F)F)cc1)N(N=Cc1ccc(C(F)(F)F)cc1)C(=O)N1CCCC1 [CF3 / CF3 / (CH2)4] | 9 (100%)

Now take the following compound into account.
Enter reported Mortality Rating Tobacco Budworm 3rd Instar observed with Tobacco Budworm 3rd Instar for N=C(NN=Cc1ccc(Br)cc1)NN=Cc1ccc(C(F)(F)F)cc1 [CF3 / Br / S] 0 (No effect)

* * *

# Tested on: Tobacco Budworm 3rd Instar
# Assay info: Tobacco budworm secondary test, third-instar larvae on treated cotton cotyledons
# Assay type: in vivo, Heliothis virescens (Fabricus)
# Assay setup: 1000 ppm
Property measured: Mortality Rating Tobacco Budworm 3rd Instar

Illustrative cases are given below, each with its answer.
CCNC(=O)N(N=Cc1ccc(C(F)(F)F)cc1)C(=N)NN=Cc1ccc(C(F)(F)F)cc1 | 0 (No effect)
CCN(CC)C(=O)N(N=Cc1ccc(C(F)(F)F)cc1)C(=N)NN=Cc1ccc(C(F)(F)F)cc1 | 4 (46-55%)

// below: Mortality Rating Tobacco Budworm 3rd Instar requested for another compound
For the compound "CC(C)OC(=O)N(N=Cc1ccc(OC(F)(F)C(F)F)cc1)C(=N)NN=Cc1ccc(OC(F)(F)C(F)F)cc1" , what Mortality Rating Tobacco Budworm 3rd Instar is on record? 5 (56-65%)

* * *

Below, each of the molecules is paired with its reported Mortality Rating Tobacco Budworm 3rd Instar value.
# Test system: Tobacco Budworm 3rd Instar
# Assay info: Tobacco budworm secondary test, third-instar larvae on treated cotton cotyledons
# Format: in vivo, Heliothis virescens (Fabricus)
# Assay setup: 1000 ppm

Answered cases to consult:
N=C(NN=Cc1ccc(OCC(F)(F)F)cc1)NN=Cc1ccc(OCC(F)(F)F)cc1 [CF3 CH2 O / B] | 0 (No effect)
N=C(NN=Cc1ccc(Cl)cc1)NN=Cc1ccc(C(F)(F)F)cc1 | 4 (46-55%)
N=C(NN=Cc1ccc(OCC(F)(F)F)cc1)NN=Cc1ccc(OCC(F)(F)F)cc1 [CF3 CH2 / S] | 0 (No effect)
CCOC(=O)N(N=Cc1ccc(OC(F)(F)F)cc1)C(=N)NN=Cc1ccc(OC(F)(F)F)cc1 | 7 (76-85%)
N=C(NN=Cc1ccc(SC(F)F)cc1)NN=Cc1ccc(SC(F)F)cc1 [HCF2 S / S] | 0 (No effect)
CN(C)C(=O)N(N=Cc1ccc(C(F)(F)F)cc1)C(=N)NN=Cc1ccc(C(F)(F)F)cc1 | 9 (100%)
N=C(NN=Cc1ccc(C(F)(F)F)cc1)N(N=Cc1ccc(C(F)(F)F)cc1)C(=O)OCCCl | 2 (26-35%)
N=C(NN=Cc1ccc(OC(F)(F)F)cc1)NN=Cc1ccc(OC(F)(F)F)cc1 | 7 (76-85%)
CN(C)C(=O)N(N=Cc1ccc(OC(F)(F)F)cc1)C(=N)NN=Cc1ccc(OC(F)(F)F)cc1 | 9 (100%)
CCCCOC(=O)N(N=Cc1ccc(C(F)(F)F)cc1)C(=N)NN=Cc1ccc(C(F)(F)F)cc1 | 0 (No effect)

Give the measured Mortality Rating Tobacco Budworm 3rd Instar of "CN(C)C(=O)N(N=Cc1ccc(OC(F)(F)C(Cl)Cl)cc1)C(=N)NN=Cc1ccc(OC(F)(F)C(Cl)Cl)cc1" . 0 (No effect)

Entry CCC(C)OC(=O)N(N=Cc1ccc(C(F)(F)F)cc1)C(=N)NN=Cc1ccc(C(F)(F)F)cc1 (stereo not drawn) [CF3 / CF3 / drawing 54] has what Mortality Rating Tobacco Budworm 3rd Instar? 6 (66-75%)
